system: human recombinant PKM2 (Homo sapiens, UniProt P14618)
Construct: purchased Sigma SAE0021
Sequence (P14618 whole entry): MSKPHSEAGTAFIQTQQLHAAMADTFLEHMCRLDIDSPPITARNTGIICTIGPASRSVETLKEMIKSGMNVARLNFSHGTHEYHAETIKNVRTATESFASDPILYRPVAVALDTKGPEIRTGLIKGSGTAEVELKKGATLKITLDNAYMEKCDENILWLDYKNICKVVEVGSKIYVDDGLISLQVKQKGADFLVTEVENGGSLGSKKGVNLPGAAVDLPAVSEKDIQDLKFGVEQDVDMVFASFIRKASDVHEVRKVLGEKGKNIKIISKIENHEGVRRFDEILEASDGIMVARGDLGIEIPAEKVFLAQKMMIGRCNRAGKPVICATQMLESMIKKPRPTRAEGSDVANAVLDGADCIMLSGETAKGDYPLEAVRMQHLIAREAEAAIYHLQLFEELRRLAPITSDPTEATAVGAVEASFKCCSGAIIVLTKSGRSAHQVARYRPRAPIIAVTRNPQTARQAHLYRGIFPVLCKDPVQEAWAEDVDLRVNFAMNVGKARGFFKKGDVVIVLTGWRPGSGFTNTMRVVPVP
experimental_details: Pyruvate kinase enzyme-coupled (LDH/NADH) assay with recombinant PKM2
Assay type: biochemical
condition_details: recombinant human PKM2, n = 3, normalized to DMSO-treated enzyme; read-out: Recombinant PKM2 Max Activation
observation_type: Emax (%)

Cn1c2cc([S+](C)[O-])ccc2c2cnn(Cc3ccccc3)c(=O)c21 (stereo not shown) | 279
Cc1ccc2c3cnn(Cc4ccccc4)c(=O)c3n(C)c2c1 | 224
Cn1c2cc(CNCCO)c(F)cc2c2cnn(Cc3ccccc3F)c(=O)c21 | 239
Cc1ccc2c3cnn(Cc4cccc(N)c4)c(=O)c3n(C)c2c1 | 249

====

system: human recombinant PKM2 (Homo sapiens, UniProt P14618)
Construct: purchased Sigma SAE0021
experimental_details: Pyruvate kinase enzyme-coupled (LDH/NADH) assay with recombinant PKM2
Type: biochemical
condition_details: recombinant human PKM2, n = 3, best-fit value ± std. error
observation_type: AC50 (µM)

For orientation, consider the following solved cases.
Cc1cccc(Cn2ncc3c4cc(F)c(CN5CCOCC5)cc4n(C)c3c2=O)n1 [Compound 16] | 0.065
Cn1c2cc(CN3CCNCC3)c(F)cc2c2cnn(Cc3ccccc3F)c(=O)c21 [Compound 21] | 0.066

[A] Cc1ccc2c3cnn(Cc4ccccc4)c(=O)c3n(C)c2c1 [Compound 1]
[B] Cc1cccc(Cn2ncc3c4cc(F)c(CN(C)C)cc4n(C)c3c2=O)n1 [Compound 19]
[C] CSc1ccc2c3cnn(Cc4cccc(N)c4)c(=O)c3n(C)c2c1 [Compound 4]
Input: Highest AC50 first, then in falling order down to the smallest. Order the labels as requested and list them.
Output: B, C, A
(B: 0.083 µM, C: 0.048 µM, A: 0.023 µM)

====

system: pyruvate kinase (PK) activity in 661W cells (Mus musculus)
Construct: endogenous in cells; host or cells: 661W photoreceptor-like cells
experimental_details: PK activity in 661W cell lysates after 2 h incubation with activator
Assay type: cell-based
condition_details: n = 3
observation_type: AC50 (nM)

Below: 3 compounds and their reported AC50.
Cc1ccc2c3cnn(Cc4cccc(N)c4)c(=O)c3n(C)c2c1 | 132
Cn1c2cc(CN3CCNCC3)c(F)cc2c2cnn(Cc3ccccc3F)c(=O)c21 | 72
Cc1cccc(Cn2ncc3c4cc(F)c(CN5CCCC5)cc4n(C)c3c2=O)n1 | 106

[P] Cc1ccc2c3cnn(Cc4ccccc4)c(=O)c3n(C)c2c1
[Q] Cn1c2cc(CNCCO)c(F)cc2c2cnn(Cc3ccccc3F)c(=O)c21
Input: Would you kindly point out which of P and Q has the smaller AC50 figure? Identify your selection by its label.
Output: Q
(Q: 93 nM, P: 175 nM)

====

system: pyruvate kinase (PK) activity in 661W cells (Mus musculus, UniProt P52480)
Construct: endogenous in cells; host or cells: 661W photoreceptor-like cells
Sequence (P52480 whole entry): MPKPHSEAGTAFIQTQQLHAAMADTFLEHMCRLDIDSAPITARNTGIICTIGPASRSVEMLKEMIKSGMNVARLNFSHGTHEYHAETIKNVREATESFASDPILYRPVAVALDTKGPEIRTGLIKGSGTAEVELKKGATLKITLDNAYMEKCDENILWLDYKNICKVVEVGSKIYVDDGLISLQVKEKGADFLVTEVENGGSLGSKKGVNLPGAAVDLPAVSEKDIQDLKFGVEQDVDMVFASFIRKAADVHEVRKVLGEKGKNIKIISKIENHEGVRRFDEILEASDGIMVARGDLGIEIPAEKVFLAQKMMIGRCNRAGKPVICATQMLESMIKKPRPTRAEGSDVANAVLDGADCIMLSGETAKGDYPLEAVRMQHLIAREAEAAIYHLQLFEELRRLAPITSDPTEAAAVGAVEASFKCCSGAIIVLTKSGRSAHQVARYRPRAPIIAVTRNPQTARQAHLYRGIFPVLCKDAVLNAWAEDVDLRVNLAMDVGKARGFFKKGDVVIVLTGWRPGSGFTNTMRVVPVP
experimental_details: PK activity in 661W cell lysates after 2 h incubation with activator
Type: cell-based
condition_details: n = 3
observation_type: AC50 (nM)

Cn1c2cc([S+](C)[O-])ccc2c2cnn(Cc3cccc(N)c3)c(=O)c21 (stereo not drawn) | 120

[P] Cn1c2cc([S+](C)[O-])ccc2c2cnn(Cc3ccccc3)c(=O)c21 (stereo not drawn)
[Q] Cc1cccc(Cn2ncc3c4cc(F)c(CN(C)C)cc4n(C)c3c2=O)n1
Input: # returns the entry with the larger AC50; inputs P and Q Pick one; state its label.
Output: Q
